B1: library; a variant is named by its letters at N, in order (parent)
chain: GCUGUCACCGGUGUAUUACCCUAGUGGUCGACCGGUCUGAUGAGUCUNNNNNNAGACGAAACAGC

- Variants of: B1
- Assay info: normalized RNA/DNA level with ligand (relative to sTRSVctl = 100) (log10 (% of sTRSVctl)); ligand: hypoxanthine (xanthine aptamer); higher = less ribozyme self-cleavage, higher mRNA level
- Condition context: ligand concentration (+) RNA-Seq: 5 mM, HEK293T, reporter: mCherry (pCS4076), ligand present: yes
Can you tell me normalized RNA/DNA level with ligand (log10) for the items I'm about to list?
# output: bare number, no unit

Need normalized RNA/DNA level with ligand (log10) of CUUGUU , thanks.
1.91

Need normalized RNA/DNA level with ligand (log10) of UAAACA , thanks.
1.91

Need normalized RNA/DNA level with ligand (log10) of CGGGAU , thanks.
1.94

Need normalized RNA/DNA level with ligand (log10) of GCAGUG , thanks.
1.87

Need normalized RNA/DNA level with ligand (log10) of CCUCAU , thanks.
1.97

Need normalized RNA/DNA level with ligand (log10) of UACACA , thanks.
1.9

Need normalized RNA/DNA level with ligand (log10) of UCACUG , thanks.
1.89

Need normalized RNA/DNA level with ligand (log10) of UCAUUA , thanks.
1.93

Need normalized RNA/DNA level with ligand (log10) of GUGCUG , thanks.
1.91

Need normalized RNA/DNA level with ligand (log10) of UUAUUU , thanks.
1.91

Need normalized RNA/DNA level with ligand (log10) of AGACAU , thanks.
1.91

Need normalized RNA/DNA level with ligand (log10) of GCCUCG , thanks.
1.91

Need normalized RNA/DNA level with ligand (log10) of AUGUUA , thanks.
1.92

Need normalized RNA/DNA level with ligand (log10) of UGAGUU , thanks.
1.92

Need normalized RNA/DNA level with ligand (log10) of UUCGCG , thanks.
1.9

Need normalized RNA/DNA level with ligand (log10) of UCCCCA , thanks.
1.94

Need normalized RNA/DNA level with ligand (log10) of UGUAGU , thanks.
1.88

Need normalized RNA/DNA level with ligand (log10) of UUUCCU , thanks.
2.05

Need normalized RNA/DNA level with ligand (log10) of ACCAUA , thanks.
1.85

Need normalized RNA/DNA level with ligand (log10) of CAGCAU , thanks.
1.95

Need normalized RNA/DNA level with ligand (log10) of GAGUAC , thanks.
1.91

Need normalized RNA/DNA level with ligand (log10) of CAGGCG , thanks.
1.96

Need normalized RNA/DNA level with ligand (log10) of CUUGCU , thanks.
2

Need normalized RNA/DNA level with ligand (log10) of UACUGG , thanks.
1.88

Need normalized RNA/DNA level with ligand (log10) of UUUGGG , thanks.
1.92

Need normalized RNA/DNA level with ligand (log10) of CGCGAU , thanks.
1.9

Need normalized RNA/DNA level with ligand (log10) of AACAAA , thanks.
1.91

Need normalized RNA/DNA level with ligand (log10) of CAAGUA , thanks.
1.89

Need normalized RNA/DNA level with ligand (log10) of AGAACG , thanks.
1.83

Need normalized RNA/DNA level with ligand (log10) of GCCUUC , thanks.
1.97

Need normalized RNA/DNA level with ligand (log10) of UUCAGG , thanks.
1.92

Need normalized RNA/DNA level with ligand (log10) of CUGAAU , thanks.
1.93

Need normalized RNA/DNA level with ligand (log10) of AGAGUA , thanks.
1.89

Need normalized RNA/DNA level with ligand (log10) of CUUAUU , thanks.
1.95

Need normalized RNA/DNA level with ligand (log10) of CUUACA , thanks.
1.93

Need normalized RNA/DNA level with ligand (log10) of GAAGAA , thanks.
1.93

Need normalized RNA/DNA level with ligand (log10) of AAUCCU , thanks.
1.94

Need normalized RNA/DNA level with ligand (log10) of GCAGAU , thanks.
1.92

Need normalized RNA/DNA level with ligand (log10) of GCGACU , thanks.
1.92

Need normalized RNA/DNA level with ligand (log10) of AGCCGC , thanks.
1.9

Need normalized RNA/DNA level with ligand (log10) of UUUGUA , thanks.
1.93

Need normalized RNA/DNA level with ligand (log10) of UUCGUC , thanks.
2.03

Need normalized RNA/DNA level with ligand (log10) of GCUCAG , thanks.
1.86

Need normalized RNA/DNA level with ligand (log10) of GGAAUU , thanks.
1.96

Need normalized RNA/DNA level with ligand (log10) of GCGCCC , thanks.
1.95

Need normalized RNA/DNA level with ligand (log10) of UUAAUG , thanks.
1.89

Need normalized RNA/DNA level with ligand (log10) of AUUGAC , thanks.
1.91

Need normalized RNA/DNA level with ligand (log10) of GUUCGA , thanks.
1.95

Need normalized RNA/DNA level with ligand (log10) of GGCGGU , thanks.
1.96

Need normalized RNA/DNA level with ligand (log10) of UCCCCU , thanks.
2

Need normalized RNA/DNA level with ligand (log10) of UGGCCG , thanks.
2.02

Need normalized RNA/DNA level with ligand (log10) of AUCGGA , thanks.
1.94

Need normalized RNA/DNA level with ligand (log10) of CAGGCA , thanks.
1.91

Need normalized RNA/DNA level with ligand (log10) of GUAAGG , thanks.
1.87

Need normalized RNA/DNA level with ligand (log10) of GGCAAC , thanks.
1.95

Need normalized RNA/DNA level with ligand (log10) of GAAACC , thanks.
1.9

Need normalized RNA/DNA level with ligand (log10) of CCUUCG , thanks.
1.88

Need normalized RNA/DNA level with ligand (log10) of CAGUCA , thanks.
1.93

Need normalized RNA/DNA level with ligand (log10) of ACCGGC , thanks.
2

Need normalized RNA/DNA level with ligand (log10) of GUUUUA , thanks.
1.93

Need normalized RNA/DNA level with ligand (log10) of GAUGCC , thanks.
1.96

Need normalized RNA/DNA level with ligand (log10) of GAGCCC , thanks.
1.99

Need normalized RNA/DNA level with ligand (log10) of UCACGU , thanks.
1.92

Need normalized RNA/DNA level with ligand (log10) of GACGUA , thanks.
1.92

Need normalized RNA/DNA level with ligand (log10) of GCGGCA , thanks.
1.94

Need normalized RNA/DNA level with ligand (log10) of GUCUCC , thanks.
1.99

Need normalized RNA/DNA level with ligand (log10) of CUCUCA , thanks.
1.96

Need normalized RNA/DNA level with ligand (log10) of GUCUAU , thanks.
1.94

Need normalized RNA/DNA level with ligand (log10) of GGCGUG , thanks.
1.91

Need normalized RNA/DNA level with ligand (log10) of UGCGCA , thanks.
1.94

Need normalized RNA/DNA level with ligand (log10) of UGUUCU , thanks.
1.93

Need normalized RNA/DNA level with ligand (log10) of GGGCUU , thanks.
1.98

Need normalized RNA/DNA level with ligand (log10) of UCGUUC , thanks.
2

Need normalized RNA/DNA level with ligand (log10) of GGGGGC , thanks.
1.85

Need normalized RNA/DNA level with ligand (log10) of CCGGCG , thanks.
1.94

Need normalized RNA/DNA level with ligand (log10) of GCGCAG , thanks.
1.58

Need normalized RNA/DNA level with ligand (log10) of UCAGGA , thanks.
1.89

Need normalized RNA/DNA level with ligand (log10) of GAGACC , thanks.
1.96

Need normalized RNA/DNA level with ligand (log10) of UCGUAG , thanks.
1.88

Need normalized RNA/DNA level with ligand (log10) of CCCCGU , thanks.
1.94
